Tested on: OVCAR-3
Assay: NCI tumour cell line growth inhibition, 48 h
The source made the active and inactive calls. Rule as the data show it: active = GI50 up to about 1.1 µM and inactive = higher.
Assignment: determine reported GI50 for the given compounds.

**Q:** Form field: reported GI50 of CCCCCCCCCC/C=C/CC(=O)SCCNC(=O)CCNC(=O)[C@@H](O)C(C)(C)COP(=O)(O)OP(=O)(O)OCC1OC(n2cnc3c(N)ncnc32)C(O)C1OP(=O)(O)O (some centres not stated)
**A:** > 10 µM (inactive)

**Q:** Form field: reported GI50 of `O=c1cc(N2CCOCC2)oc2c(-c3ccccc3)cccc12`
**A:** 7.16 µM (inactive)

**Q:** Form field: reported GI50 of `COc1c2occc2c(OC)c2c(=O)c(S(=O)(=O)NC(=O)Nc3ccc(Cl)cc3)coc12`
**A:** > 10 µM (inactive)

**Q:** Form field: reported GI50 of `NNC(=O)c1nnn(CCc2ccccc2)c1C(=O)NN`
**A:** > 100 µM (inactive)

**Q:** Form field: reported GI50 of `O=C(NC12CC3CC(CC(C3)C1)C2)C(=O)c1c[nH]c2ccc([N+](=O)[O-])cc12`
**A:** 24.8 µM (inactive)

**Q:** Form field: reported GI50 of `O=c1[nH]c2ccc(Cl)cc2c2oc(-c3ccccc3)nc12`
**A:** 21.2 µM (inactive)

**Q:** Form field: reported GI50 of `CC(C)(C)OC(=O)N1CCC(C(=O)O)CC1`
**A:** > 100 µM (inactive)

====

Tested on: K562
Assay: NCI tumour cell line growth inhibition, 48 h
Activity calls are given as the source filed them. Cut-off read from the data, not from the text of the source: active = GI50 up to about 1.1 µM and inactive = higher.
The reply should name one outcome from active, inactive

**Q:** Hi team, can someone confirm the assay call for `O=c1/c(=C/c2cccc3ccccc23)sc2nc3ccccc3n12` ?
**A:** inactive

**Q:** Hi team, can someone confirm the assay call for `CC(=O)NNc1nc(C)c(C(=O)NNC(=O)C(=O)Nc2ccc(C)cc2[N+](=O)[O-])s1` ?
**A:** inactive

**Q:** Hi team, can someone confirm the assay call for `Cc1cc(N(CCC#N)S(=O)(=O)c2ccccc2)ccc1/C=C1N=C(/C=C/c2ccccc2)OC\1=O` ?
**A:** inactive

**Q:** Hi team, can someone confirm the assay call for C[C@H](CCC(=O)O[C@@H]1CC[C@@]2(C)C(CC[C@H]3[C@@H]4CC[C@H]([C@H](C)CCc5nc6ccccc6[nH]5)[C@@]4(C)CC[C@@H]32)C1)[C@H]1CC[C@H]2[C@@H]3CCC4C[C@H](O)CC[C@]4(C)[C@H]3CC[C@]12C (some centres undefined) ?
**A:** inactive

**Q:** Hi team, can someone confirm the assay call for `c1ccc(-c2cc(-c3cccs3)c(-c3cccs3)o2)cc1` ?
**A:** inactive

**Q:** Hi team, can someone confirm the assay call for `C=C1c2ccccc2C(=O)c2c1c1c(C(=O)OC)c(O)ccc1n2Cc1ccccc1` ?
**A:** active

**Q:** Hi team, can someone confirm the assay call for `CCCn1cc2c(O)nc(SC)nc2n1` ?
**A:** inactive

**Q:** Hi team, can someone confirm the assay call for `COC(=O)c1c(O)ccc2c1c1c(n2Cc2cccc(C)c2)C(=O)c2ccccc2C1` ?
**A:** inactive

**Q:** Hi team, can someone confirm the assay call for `C=CCc1cc(-c2cc(CC=C)c(O)c(CN(CC)CC)c2)cc(CN(CC)CC)c1O` ?
**A:** inactive

**Q:** Hi team, can someone confirm the assay call for `CCCCCCCC/C=C\CCCCCCCC(=O)OC[C@]1(CO)CCC(=O)O1` ?
**A:** inactive

**Q:** Hi team, can someone confirm the assay call for `Nc1ncc(CN2CCCC2)c(-c2ccccc2O)n1` ?
**A:** inactive

**Q:** Hi team, can someone confirm the assay call for O=C1CSC(c2c(O)ccc3ccccc23)N1n1c(S)nnc(/C=C/c2c(O)ccc3ccccc23)c1=O (centres undefined) ?
**A:** active

**Q:** Hi team, can someone confirm the assay call for O=P(Nc1ccccc1)(Oc1ccccc1)N1CCN(c2ccccc2)CC1 (centres undefined) ?
**A:** inactive

**Q:** Hi team, can someone confirm the assay call for CN1CCCCC1CCN1c2ccccc2Sc2ccc([S+](C)[O-])cc21 (centres undefined) ?
**A:** inactive

Origin of measurements: ChEMBL document CHEMBL1201862
